meta.source: ChEMBL document CHEMBL5126502

method: Cytotoxicity against human MCF7 cells incubated for 48 hrs by MTT assay
Type: toxicity, cell-based
recorded_endpoint: IC50 at 48 h (µM)
Just the number please, in µM, no unit attached.

Challenge: Read the entry `C[C@@H]1CC[C@@]2(OC1)O[C@H]1C[C@H]3[C@@H]4CC[C@H]5C[C@@H](OC(=O)[C@@H](N)CO)CC[C@]5(C)[C@H]4CC[C@]3(C)[C@H]1[C@@H]2C` and write its reported IC50 at 48 h.
Response given: 1.5
